Reference source: ChEMBL document CHEMBL4425130

Assay: Apparent terminal half life in Han Wistar rat at 1 umol/kg, po administered via gavage by LC-MS/MS method
Type: ADME, organism-based
Details: in vivo, read-out: betat1/2(app) (converted)
property.label: half-life (min)
Quick reminder: number only, in min, skip the unit.

Using the record for "CC1=C2CC(=O)NCc3cc(Cl)ccc3CNC(=O)OCOC(=O)c3cccc(c3)CNN(CC1)C2=O" , report its half-life.
67.2

Could you share which half-life value was measured for "CC1=C(CC(=O)NCc2cc(Cl)ccc2CN)C(=O)N(NCc2cccc(C(=O)O)c2)CC1" ?
33.6

###

Experiment: Cmax in Han Wistar rat at 1 umol/kg, po administered via gavage by LC-MS/MS method
Type: ADME, organism-based
Set-up: dose 1 umol/kg, route oral
Conditions: in vivo
Provide the reported Cmax of each item.
Lab book: enter the figure in nM, no units written.

Give the measured Cmax of "CC1=C(CC(=O)NCc2cc(Cl)ccc2CN)C(=O)N(NCc2cccc(C(=O)O)c2)CC1" .
4

Value lookup for Cmax; key = "CC1=C2CC(=O)NCc3cc(Cl)ccc3CNC(=O)OCOC(=O)c3cccc(c3)CNN(CC1)C2=O"
11

###

Test: Volume of distribution at steady state in Han Wistar rat at 0.5 umol/kg, iv by LC-MS/MS method
Assay type: ADME, organism-based
Settings: in vivo, read-out: Vdss
property.label: Vd (L/kg)
The response must be a number in L/kg with no trailing unit.

Would you kindly share the measured Vd for "CC1=C(CC(=O)NCc2cc(Cl)ccc2CN)C(=O)N(NCc2cccc(C(=O)O)c2)CC1" ?
0.23
